Assay: Particle size and PDI by dynamic light scattering (Malvern Zetasizer)
Assay type: physicochemical
Conditions: lipid/no neutral lipid/CHOL/AVANTI 880150P 50/0/46/4, N/P 3.43
From the text: Unless indicated otherwise, all sizes referred to herein are the average sizes (diameters) of the fully formed nanoparticle, as measured by dynamic light scattering on a Malvern Zetasizer. […] The acronym PDI stands for polydispersity index. Unless indicated otherwise, all PDIs referred to herein are the PDI of the fully formed nanoparticle, as measured by dynamic light scattering on a Malvern Zetasizer. […]
Returns one of t or f; t when PDI is >= 0.2.

COMPOUND | LABEL_CLASS
CCCCC/C=C\C/C=C\CCCCCCCCOCC(CN1CCC(F)(F)CC1)OCCOCCO[C@H]1CC[C@@]2(C)C(=CCC3C2CC[C@@]2(C)C3CC[C@@H]2[C@H](C)CCCC(C)C)C1 (stereo partly drawn) [E0170] | f
CCCCC/C=C\C/C=C\CCCCCCCCOCC(CN1CC=CC1)OCCOCCO[C@H]1CC[C@@]2(C)C(=CCC3C2CC[C@@]2(C)C3CC[C@@H]2[C@H](C)CCCC(C)C)C1 (stereo partly drawn) [E0032] | t
CCCCC/C=C\C/C=C\CCCCCCCCOCC(CN(C)C)OCCOCCO[C@H]1CC[C@@]2(C)C(=CC[C@H]3[C@@H]4CC[C@H]([C@H](C)CCCC(C)C)[C@@]4(C)CC[C@@H]32)C1 (stereo partly drawn) [E0172, reference compound] | f

Decide: is the reported value of PDI for CCCCC/C=C\C/C=C\CCCCCCCCOCC(CN1CCC(C)(C)CC1)OCCOCCO[C@H]1CC[C@@]2(C)C(=CCC3C2CC[C@@]2(C)C3CC[C@@H]2[C@H](C)CCCC(C)C)C1 (stereo partly drawn) [E0171] equal to or greater than 0.2? f

Given the entry CCCCC/C=C\C/C=C\CCCCCCCCOCC(CN1CCC(C)(C)C1)OCCOCCO[C@H]1CC[C@@]2(C)C(=CC[C@H]3[C@@H]4CC[C@H]([C@H](C)CCCC(C)C)[C@@]4(C)CC[C@@H]32)C1 (stereo partly drawn) [E0026] , answer whether its PDI meets or surpasses 0.2. t

Check if PDI >= 0.2 (inclusive). Item: CCCCC/C=C\C/C=C\CCCCCCCCOCC(CN1CCC[C@@H]1COC)OCCOCCO[C@H]1CC[C@@]2(C)C(=CC[C@H]3C4CC[C@H]([C@H](C)CCCC(C)C)[C@@]4(C)CC[C@@H]32)C1 (stereo partly drawn) [E0037] f

State whether the measured PDI reaches 0.2, counting equality as reaching it, for CCCCC/C=C\C/C=C\CCCCCCCCOCC(CN1CCCC1c1ccccc1)OCCOCCO[C@H]1CC[C@@]2(C)C(=CC[C@H]3[C@@H]4CC[C@H]([C@H](C)CCCC(C)C)[C@@]4(C)CC[C@@H]32)C1 (stereo partly drawn) [E0050] f

# bool: PDI of CCCCC/C=C\C/C=C\CCCCCCCCOCC(CN1CCOCCOCCOCC1)OCCOCCO[C@H]1CC[C@@]2(C)C(=CC[C@H]3[C@@H]4CC[C@H]([C@H](C)CCCC(C)C)[C@@]4(C)CC[C@@H]32)C1 (stereo partly drawn) [E0030] >= 0.2 f

# bool: PDI of CCCCC/C=C\C/C=C\CCCCCCCCOCC(CN1CCCCC1)OCCOCCNC(=O)O[C@H]1CC[C@@]2(C)C(=CCC3C2CC[C@@]2(C)C3CC[C@@H]2[C@H](C)CCCC(C)C)C1 (stereo partly drawn) [E0054] >= 0.2 f

Does the reported PDI for CCCCC/C=C\C/C=C\CCCCCCCCOCC(CN1CCCCC1)OCCOCCO[C@H]1CC[C@@]2(C)C(=CCC3C2CC[C@@]2(C)C3CC[C@@H]2[C@H](C)CCCC(C)C)C1 (stereo partly drawn) [E0014] fall at or above the 0.2 mark? f

Tell me whether PDI is at least 0.2 here: CCCCC/C=C\C/C=C\CCCCCCCCOCC(CN1CC[C@@H]2CCCC[C@H]2C1)OCCOCCO[C@H]1CC[C@@]2(C)C(=CCC3C2CC[C@@]2(C)C3CC[C@@H]2[C@H](C)CCCC(C)C)C1 (stereo partly drawn) [E0020] f

meta.source: patent US9301923B2
